- tgt: T1, Macaca fascicularis IL-36R on cells (Macaca fascicularis, UniProt A0A2K5WSK9 20-558)
- T1 sequence: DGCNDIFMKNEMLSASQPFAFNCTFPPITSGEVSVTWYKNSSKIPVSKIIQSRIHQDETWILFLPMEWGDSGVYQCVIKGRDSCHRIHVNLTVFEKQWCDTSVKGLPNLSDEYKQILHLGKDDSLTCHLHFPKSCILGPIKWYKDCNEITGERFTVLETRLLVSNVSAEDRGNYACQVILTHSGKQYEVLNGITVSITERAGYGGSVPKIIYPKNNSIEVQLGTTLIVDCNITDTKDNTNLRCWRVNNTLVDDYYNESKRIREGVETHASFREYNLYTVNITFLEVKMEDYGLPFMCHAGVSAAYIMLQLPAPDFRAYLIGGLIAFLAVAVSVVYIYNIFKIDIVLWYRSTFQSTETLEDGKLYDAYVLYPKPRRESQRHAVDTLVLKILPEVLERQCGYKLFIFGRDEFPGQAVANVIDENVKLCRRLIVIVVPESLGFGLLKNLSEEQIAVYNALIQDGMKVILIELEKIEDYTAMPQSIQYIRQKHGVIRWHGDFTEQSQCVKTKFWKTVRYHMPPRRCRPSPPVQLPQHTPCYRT
- protocol: cell-based or functional assay
observable: Max Inhibition (%), NFκB-luciferase, 300 pM hIL-36γ
# output: bare number, implied unit %

Previously resolved entries follow.
Specify reported Max Inhibition (%), NFκB-luciferase, 300 pM hIL-36γ for the binder shown: H4H14706P2 (antibody, human IgG4 S228P, kappa, V domains shown) VH: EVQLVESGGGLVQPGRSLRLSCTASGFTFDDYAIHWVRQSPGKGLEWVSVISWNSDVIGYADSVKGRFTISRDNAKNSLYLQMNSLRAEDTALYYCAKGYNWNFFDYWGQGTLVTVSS VL: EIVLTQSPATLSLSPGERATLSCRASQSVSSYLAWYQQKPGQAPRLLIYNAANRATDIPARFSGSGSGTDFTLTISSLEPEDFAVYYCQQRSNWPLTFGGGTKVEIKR
100

Specify reported Max Inhibition (%), NFκB-luciferase, 300 pM hIL-36γ for the binder shown: H4H14708P2 (antibody, human IgG4 S228P, kappa, V domains shown) VH: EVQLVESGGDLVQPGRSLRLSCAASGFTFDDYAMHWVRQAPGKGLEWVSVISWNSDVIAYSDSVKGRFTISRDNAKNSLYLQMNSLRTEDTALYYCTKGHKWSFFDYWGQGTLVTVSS VL: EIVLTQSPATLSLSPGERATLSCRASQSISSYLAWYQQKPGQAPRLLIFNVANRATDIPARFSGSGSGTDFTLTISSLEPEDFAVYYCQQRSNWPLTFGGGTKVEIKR
100

Specify reported Max Inhibition (%), NFκB-luciferase, 300 pM hIL-36γ for the binder shown: H4H14757P (antibody, human IgG4 S228P, kappa, V domains shown) VH: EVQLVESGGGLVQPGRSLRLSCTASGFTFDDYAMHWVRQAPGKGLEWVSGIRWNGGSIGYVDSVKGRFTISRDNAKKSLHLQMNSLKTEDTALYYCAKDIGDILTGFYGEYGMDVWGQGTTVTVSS VL: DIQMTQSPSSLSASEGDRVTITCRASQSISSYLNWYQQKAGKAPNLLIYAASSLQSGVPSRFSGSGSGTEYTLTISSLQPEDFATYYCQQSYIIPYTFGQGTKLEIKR
25

Okay, next one:
Specify reported Max Inhibition (%), NFκB-luciferase, 300 pM hIL-36γ for the binder shown: H4H14700P2 (antibody, human IgG4 S228P, kappa, V domains shown) VH: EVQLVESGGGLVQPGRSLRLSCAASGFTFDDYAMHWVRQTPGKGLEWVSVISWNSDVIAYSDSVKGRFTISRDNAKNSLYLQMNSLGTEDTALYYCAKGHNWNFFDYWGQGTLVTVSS VL: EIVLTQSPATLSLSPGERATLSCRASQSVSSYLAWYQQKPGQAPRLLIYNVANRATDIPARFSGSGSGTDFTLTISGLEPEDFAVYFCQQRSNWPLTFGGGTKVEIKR
99
